koff overview
ASSAYED SYSTEM: T1, soluble recombinant human uPAR/His6 (R&D Systems, Cat. # 807-UK-100) (human, UniProt Q03405 23-303)
T1 construct: range 1-303; Bought protein; also called soluble uPAR; hu-uPAR
T1 sequence (Q03405 other isoform, or with tags, fused parts or gaps limits assumed, form in doubt): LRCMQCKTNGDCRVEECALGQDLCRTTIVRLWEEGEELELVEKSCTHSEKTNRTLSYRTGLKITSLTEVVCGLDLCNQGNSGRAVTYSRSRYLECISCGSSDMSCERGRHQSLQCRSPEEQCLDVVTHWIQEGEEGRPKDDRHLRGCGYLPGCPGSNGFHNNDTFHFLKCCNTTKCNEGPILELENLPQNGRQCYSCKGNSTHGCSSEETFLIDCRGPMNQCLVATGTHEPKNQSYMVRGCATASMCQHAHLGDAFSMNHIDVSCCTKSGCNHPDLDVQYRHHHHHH
PROTOCOL SUMMARY: low resolution Biacore, mAb captured by goat anti-human, hu-uPAR 312 nM;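 also: surface plasmon resonance on a CM5 chip with goat anti-human antibody surface made by amine coupling, each mAb from supernatant captured per flow cell, kinetics fitted including mass transport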
Provide the reading as a plain figure in s⁻¹.

Given the entry fully human monoclonal antibody 2.6.1 (ATCC Accession Number PTA-7475) (antibody, V domains shown, also called mAb 2.6.1) VH: EVQLVESGGGLIQPGGSLRLSCAASGFTVITNYMNWVRQAPGKGLEWVSIIYTGGSTSYADSVKGRFTVSRDNSKNTLYLHMNSLRVEDTAVYYCAREIAVAGYYGMDVWGQGTTVTVS VL: DIQMTQSPSSLSASVGDRVTITCRASQGIRNDLGWYQQKPGKAPKRLIYAASSLQSGVPSRFSGSGSGTEFTLTISSLQPEDFATYYCLQHNSYPLTFGGGTRVEIK , report its measured koff.
4.6e-05

Given the entry fully human monoclonal antibody 4.18.1 (ATCC Accession Number PTA-7476) (antibody, V domains shown) VH: EVQLVESGGGLIQPGGSLRLSCAASGFTVRNNYMNWVRQAPGKGLEWVSVIYTGGSTYYADSVKGRFTISRDNSRNTLYLQMNSLRAEDTAVYYCAREGAVAGFDYWGQGTLVTVSL VL: EIVMTQFPATLSMSPGERATLSCRASQSVSSSLAWYQQTPGQAPRLLIYGASTRSTGFPARFSGIGSGTEFTLTISSLQSEDFAVYYCQQYGNWPLTFGQGTRLEIK , report its measured koff.
0.00016

Given the entry anti-uPAR monoclonal antibody 1.99.1 (antibody, V domains shown) VH: EVQLVESGGGLIQPGGSLRLSCAASGFTVRSNYMSWVRQAPGKGLEWISVIYTGGSTYYADSVKGRFSISRDNSKNTLYLQMNSLRAEDTAVYYCAREGAVAGFDYWGQGTLVTVSS VL: EIVMTQSPATLSVSPGERATLSCRASQSISSNLAWYQQKPGQAPRLLIYGASTRATGIPARFSGSGSGTEFTLTISSLQSEDFAVYYCQQYTNWPLTFGGGTKVEIK , report its measured koff.
0.00042
